Biological target: 5-hydroxytryptamine receptor 2A (Rattus norvegicus)
Sequence (P14842 whole entry): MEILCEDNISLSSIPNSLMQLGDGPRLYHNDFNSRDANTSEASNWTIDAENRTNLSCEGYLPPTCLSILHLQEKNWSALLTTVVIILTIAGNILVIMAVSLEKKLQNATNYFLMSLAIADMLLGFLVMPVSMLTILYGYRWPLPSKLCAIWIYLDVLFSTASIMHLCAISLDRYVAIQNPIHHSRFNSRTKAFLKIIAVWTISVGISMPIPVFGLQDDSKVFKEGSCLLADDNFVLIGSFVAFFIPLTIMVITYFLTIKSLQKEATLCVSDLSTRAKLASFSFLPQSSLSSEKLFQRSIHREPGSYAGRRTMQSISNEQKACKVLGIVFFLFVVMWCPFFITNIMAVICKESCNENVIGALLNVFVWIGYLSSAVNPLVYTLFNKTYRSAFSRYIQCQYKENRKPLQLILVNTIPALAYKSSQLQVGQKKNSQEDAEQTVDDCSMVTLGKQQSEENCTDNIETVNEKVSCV
Experiment: Ability to inhibit the binding of iodine-125-labelled lysergic acid diethylamide([125I]-LSD) to the S-2A serotonin receptor in NIH3T3 cell line membranes
Type: cell-based
pKi: −log10 of the molar value.
Experimental Endpoint: pKi

Input Smiles | pKi
CN1CC=C(C2=Cc3ccccc3Oc3ccccc32)CC1 | 8.22

P: CCN1CC=C(C2=Cc3ccccc3Oc3ccccc32)CC1
Q: CN1CCC(C2=Cc3ccccc3Oc3ccccc32)CC1
R: C=CCN1CC=C(C2=Cc3ccccc3Oc3ccccc32)CC1
Enquiry: Rank order required: pKi, descending. Answer by listing the labels in the order asked for.
Return: Q, P, R

* * *

Molecular target: 5-hydroxytryptamine receptor 2A (Rattus norvegicus)
Test: Ability to inhibit the binding of iodine-125-labelled lysergic acid diethylamide([125I]-LSD) to the S-2A serotonin receptor.
pKi: −log10 of the molar value.
Experimental Endpoint: pKi

Previously resolved entries follow.
Input Smiles | pKi
CCN1CC=C(C2=Cc3ccccc3Cc3ccccc32)CC1 | 8.35
CN1CC=C(C2=Cc3ccccc3Cc3ccccc32)CC1 | 8.22

P: CC(C)=C1c2ccccc2C=C(C2=CCN(C)CC2)c2cc(Cl)ccc21
Q: C=CCN1CC=C(C2=Cc3ccccc3Cc3ccccc32)CC1
Enquiry: Hi! Which is lower in terms of pKi, the first one P or the second one Q ? # answer = label of selected item
Return: P
(P: 6.12, Q: 7.70)

* * *

Experiment: Ratio of Ki value towards dopamine D2L receptor to that of serotonin S-2A receptor.
Experimental Endpoint: Ratio

Molecule | Ratio
CN1CC=C(C2=Cc3ccccc3Cc3ccccc32)CC1 | 15

1: CC1c2ccccc2C=C(C2=CCN(C)CC2)c2ccccc21 (stereo not given)
2: C=CCN1CC=C(C2=Cc3ccccc3Oc3ccccc32)CC1
Enquiry: Of the two listed items, 1 and 2 , which carries the larger Ratio figure? Answer with the label corresponding to your selection.
Return: 1

P: CCN1CC=C(C2=Cc3ccccc3Oc3ccccc32)CC1
Q: CN1CCN(C2=Cc3ccccc3Oc3ccc(Cl)cc32)CC1
Enquiry: Which value of Ratio is greater, the one for P or the one for Q ? Give the chosen item's label as your response.
Return: P

* * *

Target: 5-hydroxytryptamine receptor 2C (Rattus norvegicus)
Assay: Ability to inhibit the binding of iodine-125-labelled lysergic acid diethylamide([125I]-LSD) to the S-2C serotonin receptor.
Experimental Endpoint: Ki (nM)

Worked cases, Ki given:
Input Smiles | Reported
CC(C)=C1c2ccccc2C=C(C2=CCN(C)CC2)c2cc(Cl)ccc21 | 1200
CCN1CC=C(C2=Cc3ccccc3Cc3ccccc32)CC1 | 7

1: CN1CC=C(C2=Cc3ccccc3Cc3ccccc32)CC1
2: C=CCN1CC=C(C2=Cc3ccccc3Cc3ccccc32)CC1
Enquiry: Which of these two has the smaller recorded Ki: 1 or 2 ? Answer by quoting the chosen item's label.
Return: 1

* * *

Target: D(2) dopamine receptor (Homo sapiens)
Sequence (P14416 whole entry): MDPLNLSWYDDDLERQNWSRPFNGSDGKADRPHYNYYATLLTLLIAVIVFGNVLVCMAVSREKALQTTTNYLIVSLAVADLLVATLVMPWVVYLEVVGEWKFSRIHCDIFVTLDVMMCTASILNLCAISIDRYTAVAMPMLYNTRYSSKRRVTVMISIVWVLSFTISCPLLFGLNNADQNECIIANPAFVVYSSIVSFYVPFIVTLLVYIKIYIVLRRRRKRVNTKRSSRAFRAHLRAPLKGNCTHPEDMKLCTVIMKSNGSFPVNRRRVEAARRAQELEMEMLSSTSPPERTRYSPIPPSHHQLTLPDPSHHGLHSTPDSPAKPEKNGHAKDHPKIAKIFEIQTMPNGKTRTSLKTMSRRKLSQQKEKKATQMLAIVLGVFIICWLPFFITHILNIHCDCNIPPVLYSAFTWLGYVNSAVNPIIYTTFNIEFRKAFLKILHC
Assay: Ability to inhibit the binding of [3H]spiperone to the Dopamine receptor D2L in COS7 cells
Experimental Endpoint: Ki (µM)

Solved entries (count: 5):
Input Smiles | Display Unit | Ki
CN1CCC(C2=Cc3ccccc3Oc3ccccc32)CC1 | µM | 0.082
CC(C)=C1c2ccccc2C=C(C2=CCN(C)CC2)c2cc(Cl)ccc21 | µM | 0.44
CCN1CC=C(C2=Cc3ccccc3Oc3ccccc32)CC1 | µM | 0.061
CN1CC=C(C2=Cc3ccccc3Cc3ccccc32)CC1 | µM | 0.089
C=CCN1CC=C(C2=Cc3ccccc3Cc3ccccc32)CC1 | µM | 0.083

1: C=CCN1CC=C(C2=Cc3ccccc3Oc3ccccc32)CC1
2: CCN1CC=C(C2=Cc3ccccc3Cc3ccccc32)CC1
Enquiry: Which value of Ki is smaller, the one for 1 or the one for 2 ? Bench note: the answer is the label of the chosen record.
Return: 2
(2: 0.044 µM, 1: 0.11 µM)

* * *

Experiment: Ratio of Ki value towards dopamine D2L receptor to that of serotonin S-2A receptor.
Experimental Endpoint: Ratio

These recorded examples may help you get a feel for the data.
Input Smiles | Ratio
CCN1CC=C(C2=Cc3ccccc3Cc3ccccc32)CC1 | 9.8
CC(C)=C1c2ccccc2C=C(C2=CCN(C)CC2)c2ccccc21 | 0.48
CC(C)=C1c2ccccc2C=C(C2=CCN(C)CC2)c2cc(Cl)ccc21 | 0.58
CN1CCN(C2=Cc3ccccc3Oc3ccccc32)CC1 | 5

I: CN1CCC(C2=Cc3ccccc3Oc3ccccc32)CC1
II: C=CCN1CC=C(C2=Cc3ccccc3Cc3ccccc32)CC1
Enquiry: Record comparison, field Ratio: mark the lower of I and II . Refer to your chosen entry by its label in the reply.
Return: II

* * *

Target: 5-hydroxytryptamine receptor 2C (Rattus norvegicus, UniProt P08909)
Sequence (P08909 whole entry): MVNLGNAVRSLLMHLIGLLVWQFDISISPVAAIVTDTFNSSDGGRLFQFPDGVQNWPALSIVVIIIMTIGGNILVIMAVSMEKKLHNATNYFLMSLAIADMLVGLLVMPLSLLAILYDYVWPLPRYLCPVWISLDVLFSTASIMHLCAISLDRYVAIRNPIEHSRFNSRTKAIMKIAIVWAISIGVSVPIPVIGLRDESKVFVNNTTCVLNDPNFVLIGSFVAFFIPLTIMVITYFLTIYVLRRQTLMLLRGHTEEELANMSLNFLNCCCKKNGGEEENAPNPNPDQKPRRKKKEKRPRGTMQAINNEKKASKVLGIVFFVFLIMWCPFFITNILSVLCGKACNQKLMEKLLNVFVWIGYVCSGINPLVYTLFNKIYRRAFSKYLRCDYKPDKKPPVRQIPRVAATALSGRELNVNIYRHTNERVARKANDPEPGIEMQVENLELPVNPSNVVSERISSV
Assay: Ability to inhibit the binding of iodine-125-labelled lysergic acid diethylamide([125I]-LSD) to the S-2C serotonin receptor in NIH3T3 cell line membranes
Type: cell-based
pKi: −log10 of the molar value.
Experimental Endpoint: pKi

Input Smiles | Reported
CCN1CC=C(C2=Cc3ccccc3Oc3ccccc32)CC1 | 7.85

A: CN1CCC(C2=Cc3ccccc3Oc3ccccc32)CC1
B: CN1CC=C(C2=Cc3ccccc3Oc3ccccc32)CC1
C: C=CCN1CC=C(C2=Cc3ccccc3Oc3ccccc32)CC1
Enquiry: // smallest pKi at index 0, largest at the end // format: requested-order list of labels
Return: C, B, A

* * *

Biological target: D(4) dopamine receptor (Homo sapiens)
Sequence (P21917 whole entry): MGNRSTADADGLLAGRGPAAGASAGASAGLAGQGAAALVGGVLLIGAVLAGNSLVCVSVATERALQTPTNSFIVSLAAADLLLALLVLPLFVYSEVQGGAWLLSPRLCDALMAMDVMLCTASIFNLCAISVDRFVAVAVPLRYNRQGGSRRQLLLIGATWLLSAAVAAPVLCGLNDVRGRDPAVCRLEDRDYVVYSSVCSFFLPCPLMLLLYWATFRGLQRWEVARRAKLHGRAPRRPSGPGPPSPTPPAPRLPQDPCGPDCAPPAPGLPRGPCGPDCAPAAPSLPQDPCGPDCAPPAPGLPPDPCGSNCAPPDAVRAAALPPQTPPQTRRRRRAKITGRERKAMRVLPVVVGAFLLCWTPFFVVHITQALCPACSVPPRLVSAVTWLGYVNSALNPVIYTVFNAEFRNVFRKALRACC
Experiment: Ability to inhibit the binding of [3H]spiperone to the Dopamine receptor D4 in COS7 cells
Experimental Endpoint: Ki (nM)

Input Smiles | Experimental Endpoint | Reported
CCN1CC=C(C2=Cc3ccccc3Oc3ccccc32)CC1 | Ki | 26
CN1CCC(C2=Cc3ccccc3Oc3ccccc32)CC1 | Ki | 9.5
C=CCN1CC=C(C2=Cc3ccccc3Cc3ccccc32)CC1 | Ki | 60
CN1CC=C(C2=Cc3ccccc3Cc3ccccc32)CC1 | Ki | 12

1: CCN1CC=C(C2=Cc3ccccc3Cc3ccccc32)CC1
2: CC(C)=C1c2ccccc2C=C(C2=CCN(C)CC2)c2cc(Cl)ccc21
Enquiry: Please indicate which entry, 1 or 2 , has the lower recorded Ki value. Returns: label corresponding to the selected item.
Return: 1
(1: 28 nM, 2: 100 nM)
